Activity values, listed per item
# assayed_system: Nuclear factor erythroid 2-related factor 2 (Mus musculus) (UniProt Q60795)
# Sequence (whole entry): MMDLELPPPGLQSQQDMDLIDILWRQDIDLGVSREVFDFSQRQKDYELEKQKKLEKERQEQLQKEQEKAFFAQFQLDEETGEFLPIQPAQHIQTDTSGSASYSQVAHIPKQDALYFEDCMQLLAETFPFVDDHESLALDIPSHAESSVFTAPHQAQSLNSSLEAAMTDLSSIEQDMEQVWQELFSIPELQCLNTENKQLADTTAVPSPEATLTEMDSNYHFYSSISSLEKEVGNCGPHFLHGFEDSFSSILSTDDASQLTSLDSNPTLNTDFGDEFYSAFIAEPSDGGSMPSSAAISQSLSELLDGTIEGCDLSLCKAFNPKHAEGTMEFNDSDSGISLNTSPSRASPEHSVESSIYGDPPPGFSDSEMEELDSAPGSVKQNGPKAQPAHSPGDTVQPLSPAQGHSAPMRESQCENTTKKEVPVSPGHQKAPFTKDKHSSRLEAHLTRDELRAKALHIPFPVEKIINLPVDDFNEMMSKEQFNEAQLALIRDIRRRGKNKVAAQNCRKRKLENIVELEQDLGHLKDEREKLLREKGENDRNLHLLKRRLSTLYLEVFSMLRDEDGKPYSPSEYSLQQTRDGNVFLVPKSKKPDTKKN
# protocol_notes: Activation of Nrf2 in mouse Hepa1c1c7 cells assessed as increase in NQO1 activity at 10 uM
# Type: cell-based
# protocol_conditions: filed as activator

molecule | Activity
NS(=O)(=O)c1ccc(-n2c(SCC(=O)Nc3ccc(Br)cc3)nc3c(I)cc(I)cc3c2=O)cc1 | 1.15
NS(=O)(=O)c1ccc(-n2c(SCC(=O)Nc3cc(Cl)c(Cl)cc3Cl)nc3c(I)cc(I)cc3c2=O)cc1 | 1.1
NS(=O)(=O)c1ccc(-n2c(SCC(=O)Nc3ccc(Cl)cc3)nc3c(I)cc(I)cc3c2=O)cc1 | 1.26
NS(=O)(=O)c1ccc(-n2c(SCC(=O)Nc3ccc(I)cc3)nc3c(I)cc(I)cc3c2=O)cc1 | 1.04

====

Reported Activity values follow for various compounds
# assayed_system: Nuclear factor erythroid 2-related factor 2 (Mus musculus)
# Sequence (whole entry): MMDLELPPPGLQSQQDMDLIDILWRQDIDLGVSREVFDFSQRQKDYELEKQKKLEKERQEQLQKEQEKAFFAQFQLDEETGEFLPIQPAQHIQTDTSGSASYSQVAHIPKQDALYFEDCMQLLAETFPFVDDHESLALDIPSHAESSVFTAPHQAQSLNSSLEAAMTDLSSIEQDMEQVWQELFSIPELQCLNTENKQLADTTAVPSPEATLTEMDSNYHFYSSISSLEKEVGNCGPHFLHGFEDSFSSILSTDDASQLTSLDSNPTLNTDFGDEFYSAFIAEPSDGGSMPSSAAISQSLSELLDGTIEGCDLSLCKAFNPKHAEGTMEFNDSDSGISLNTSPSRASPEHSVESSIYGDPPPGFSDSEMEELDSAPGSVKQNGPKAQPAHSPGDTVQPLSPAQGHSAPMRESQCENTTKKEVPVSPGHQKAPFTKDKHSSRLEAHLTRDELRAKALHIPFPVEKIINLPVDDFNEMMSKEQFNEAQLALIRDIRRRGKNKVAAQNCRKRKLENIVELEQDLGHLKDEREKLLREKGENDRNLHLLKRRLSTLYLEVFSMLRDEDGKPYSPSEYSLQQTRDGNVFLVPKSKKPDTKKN
# protocol_notes: Activation of Nrf2 in mouse Hepa1c1c7 cells assessed as increase in NQO1 activity at 0.313 uM
# Type: cell-based
# protocol_conditions: filed as activator

molecule | Activity
NS(=O)(=O)c1ccc(-n2c(SCC(=O)Nc3ccc(I)cc3)nc3c(I)cc(I)cc3c2=O)cc1 | 1.02
NS(=O)(=O)c1ccc(-n2c(SCC(=O)Nc3ccccn3)nc3c(I)cc(I)cc3c2=O)cc1 | 0.96
NS(=O)(=O)c1ccc(-n2c(SCC(=O)Nc3cc(Cl)c(Cl)cc3Cl)nc3c(I)cc(I)cc3c2=O)cc1 | 1.01
NS(=O)(=O)c1ccc(-n2c(SCC(=O)Nc3ccc(Br)cc3)nc3c(I)cc(I)cc3c2=O)cc1 | 1.02
NS(=O)(=O)c1ccc(-n2c(SCC(=O)Nc3ccc(Cl)cc3)nc3c(I)cc(I)cc3c2=O)cc1 | 1.06
